Test: chemical genetic growth profiling, strain panel (AID 1159580);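 also: tested at 20 µM; growth read once vehicle control cultures reached saturation at 30 °C; 1 = growth at the plate median or of vehicle wells; lower values mean less growth of the strain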
Settings: S. cerevisiae deletion strains, growth OD, locus YOR270C, strain vph1, hits give low values
Among all 5,500 compounds or so, about 2,000 (36%) were called active. Inconclusive results (about 18%) are left out. Some of the results follow.
Listed here are molecules together with their documented normalized growth.

molecule	normalized growth
CC(=O)CC(=O)CCC(=O)O	1.11
Cc1cccc(Nc2cc(Cl)nc(SCC(=O)O)n2)c1C	0.972
CC(C)[C@H](N)C(=O)OCCOCn1cnc2c(=O)[nH]c(N)nc21	0.864
CC(=O)O[C@@](C)(CCC=C(C)C)C1CC=C(C)CC1 (stereo partly drawn)	0.915
COc1ccc2c(c1)OC[C@@H](Cc1ccc(OC)c(OC)c1)[C@H]2O	1.01
CC(C)CC1C(=O)N2CCC[C@H]2C2(O)O[C@](NC(=O)C3C=C4c5cccc6[nH]c(Br)c(c56)C[C@H]4N(C)C3)(C(C)C)C(=O)N12 (stereo partly drawn)	1.07
C[CH2][Hg][S]c1ccccc1C(=O)O	0.0908
CC(C)(N=NC(C)(C)C(=N)N)C(=N)N	1.02
O=C(O)c1ccccc1OP(=O)(O)O	1.01
NCC1CCCCC1CC(=O)O (stereo not drawn)	1.04
COC(=O)C1=COC(OC2OC(CO)C(O)C(O)C2O)C2C(C)CC(=O)C12O (stereo not drawn)	1.02
C[N+](C)(C)CCOP(=O)([O-])OP(=O)(O)OC[C@H]1OC(n2ccc(N)nc2=O)[C@H](O)[C@@H]1O (stereo partly drawn)	0.98
C1CCc2nnnn2CC1	1.04
N=c1nc(N2CCCCC2)cc(N)n1O	0.979
O=C1C[C@@H](c2ccc(O)cc2)Oc2cc(O)cc(O)c21	0.902
N#Cc1c(Cl)c(Cl)c(Cl)c(C#N)c1Cl	0.122
CCC1(C)CC(=O)NC1=O (stereo not drawn)	0.984
CC(=O)O[C@]1(C(C)=O)CCC2C3C[C@H](C)C4=CC(=O)CC[C@]4(C)C3CC[C@@]21C (stereo partly drawn)	0.867
CC(=O)OCC(CCn1cnc2cnc(N)nc21)COC(C)=O	1
CCc1ccc(CCOc2ccc(CC3SC(=O)NC3=O)cc2)nc1 (stereo not drawn)	1.04
COc1ccc([C@@H]2CC(=O)c3c(O)cc(O)cc3O2)cc1O	0.933
Cc1cc(OC(=O)N2CCCCC2)c(C(C)C)cc1[N+](C)(C)C	1.08
O=[N+]([O-])O[C@H]1CO[C@H]2[C@@H]1OC[C@H]2O[N+](=O)[O-]	1.02
CCCCCC(=O)O[C@]1(C(C)=O)CCC2C3CCC4=CC(=O)CC[C@]4(C)C3CC[C@@]21C (stereo partly drawn)	1.04
CCC1(c2ccccc2)C(=O)NCNC1=O	1.02
CN1CCCC(n2nc(Cc3ccc(Cl)cc3)c3ccccc3c2=O)CC1 (stereo not drawn)	0.93
CN=C(NC#N)NCCSCc1nc(N=C(N)N)cs1	0.983
NC[C@@H]1O[C@H](O[C@@H]2[C@@H](CO)OC(O[C@@H]3[C@@H](O)[C@H](N)C[C@H](N)[C@H]3OC3O[C@H](CN)[C@@H](O)[C@H](O)[C@H]3N)[C@@H]2O)[C@H](N)[C@@H](O)[C@@H]1O (stereo partly drawn)	1.06
CC[C@@H](CO)NCCN[C@@H](CC)CO	1.04
COc1ccc(C[C@H]2NC[C@H](O)[C@H]2OC(C)=O)cc1	0.354
O=C(O)c1cc(=O)c2ccc(Cl)cc2[nH]1	1.04
COc1ccc2c(c1)OC[C@@H](Cc1ccc(OC)c(OC)c1)[C@@H]2O	1.01
CN=C(NC#N)NCCSCc1nc[nH]c1C	1.02
COc1ccc(C2CC(=O)c3ccc(OC)cc3O2)cc1 (stereo not drawn)	0.675
CCCCOc1ccc(C(=O)CCN2CCCCC2)cc1	0.275
CCCCCC(C)N (stereo not drawn)	1.07
CCCCCCCCCCCCCCCCOP(=O)([O-])OCC[N+](C)(C)C	0.093
OCCN(CCO)c1nc(N2CCCCC2)c2nc(N(CCO)CCO)nc(N3CCCCC3)c2n1	0.948
CC(C)(C)CC(C)(C)c1ccc(OCCOCC[N+](C)(C)Cc2ccccc2)cc1	0.103
COC(=O)C1[C@H]2C[C@H]3c4[nH]c5ccccc5c4CCN3C[C@@H]2CC[C@@H]1O (stereo partly drawn)	0.935
CO[C@H]1C[C@H](O[C@H]2[C@H](C)[C@@H](OC3O[C@H](C)C[C@H](N(C)C)[C@H]3O)[C@@H](C)C[C@]3(CO3)C(=O)[C@H](C)[C@@H](O)[C@@H](C)[C@@H](C)OC(=O)[C@@H]2C)O[C@@H](C)[C@@H]1O (stereo partly drawn)	1.03
COC(=O)[C@@H]1C(O)CC[C@H]2CN3CCc4c([nH]c5ccccc45)[C@@H]3C[C@@H]21 (stereo partly drawn)	1
CCC1(c2ccc(N)cc2)CCC(=O)NC1=O (stereo not drawn)	0.977

###

Assay: chemical genetic growth profiling, strain panel (AID 1159580);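 also: tested at 20 µM; growth read once vehicle control cultures reached saturation at 30 °C; 1 = growth at the plate median or of vehicle wells; lower values mean less growth of the strain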
Details: S. cerevisiae deletion strains, growth OD, locus YMR125W, strain sto1
Hit rate of the full screen: of about 5,500 compounds, about 2,000 (36%) were called active. Not shown: some 18% with an inconclusive outcome. Cut-off read from the data, not from the text of the source: active = normalized growth mostly below about 0.91 (no sharp cut-off); inconclusive = no clear call, values can overlap the other calls; inactive = mostly above about 0.92. Some of the results follow.
Classes used: t (active), f (inactive)

> print(dat)
                                    compound  class
 1      COc1ccc(-c2coc3c(O)c(OC)ccc3c2=O)cc1      f
 2  CCCCCC(=O)O[C@]1(C(C)=O)CCC2C3CCC4=CC(=O)CC[C@]4(C)C3CC[C@@]21C (stereo partly specified)      f
 3  CC(=O)O[C@]1(C(C)=O)CCC2C3C[C@H](C)C4=CC(=O)CC[C@]4(C)C3CC[C@@]21C (stereo partly specified)      f
 4  CC(=O)O[C@]1(C(C)=O)CCC2C3C=C(Cl)C4=CC(=O)CC[C@]4(C)C3CC[C@@]21C (stereo partly specified)      f
 5                       C=CCc1ccc2c(c1)OCO2      f
 6  CC(=O)O[C@]1(C(C)=O)CCC2C3C=C(C)C4=CC(=O)CCC4(C)C3CCC21C (stereo partly specified)      f
 7  COc1ccc(-c2coc3c(OC)c(OC)cc(O)c3c2=O)cc1      f
 8  CCC1(c2ccc(N)cc2)CCC(=O)NC1=O (stereo unspecified)      f
 9  CN1C2CC3C[C@H]1C(O3)C2O (stereo partly specified)      f
10                      CC(=O)CC(=O)CCC(=O)O      f
11            N#Cc1c(Cl)c(Cl)c(Cl)c(C#N)c1Cl      t

###

Experiment: chemical genetic growth profiling, strain panel (AID 1159580);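 also: tested at 20 µM; growth read once vehicle control cultures reached saturation at 30 °C; 1 = growth at the plate median or of vehicle wells; lower values mean less growth of the strain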
Settings: S. cerevisiae deletion strains, growth OD, locus YKR091W, strain srl3, hits give low values
Out of some 5,500 compounds screened, about 2,000 (36%) were called active. About 18% were inconclusive and are not listed. Some of the results follow.
Listed here are molecules together with their documented normalized growth.
measured.attribute: normalized growth

> print(dat)
                                    molecule  readout.number
 1  CCCCCCCCCCCCCCCCOP(=O)([O-])OCC[N+](C)(C)C           0.072
 2               C[CH2][Hg][S]c1ccccc1C(=O)O          0.0575
 3                O=C(O)COc1cc(Cl)c(Cl)cc1Cl               1
 4                       C=CCc1ccc2c(c1)OCO2            1.02
 5  CCCCCCCC/C=C/CCCCCCCCOP(=O)([O-])OCC[N+](C)(C)C          0.0556
 6  CCC1(c2ccc(N)cc2)CCC(=O)NC1=O (configuration not stated)           0.977
 7              CC[C@@H](CO)NCCN[C@@H](CC)CO            1.01
 8     CC(=O)OCC(CCn1cnc2cnc(N)nc21)COC(C)=O           0.989
 9  C[N+](C)(C)CCOP(=O)([O-])OP(=O)(O)OC[C@H]1OC(n2ccc(N)nc2=O)[C@H](O)[C@@H]1O (some centres not stated)           0.982
10  CCC1(C)CC(=O)NC1=O (configuration not stated)           0.972
11  CN1C2CC3C[C@H]1C(O3)C2O (some centres not stated)            1.01
12            N#Cc1c(Cl)c(Cl)c(Cl)c(C#N)c1Cl          0.0738
